All figures here come from patent US10357484B2.

inhibition at 1 µM overview
- Target or system: HDAC9 enzyme (Homo sapiens, UniProt Q9UKV0)
- Construct: transducing full length HDAC9 gene into Sf-9 insect cells; made in house; host or cells: Sf-9 insect cells
- Sequence (Q9UKV0 whole entry, species assumed): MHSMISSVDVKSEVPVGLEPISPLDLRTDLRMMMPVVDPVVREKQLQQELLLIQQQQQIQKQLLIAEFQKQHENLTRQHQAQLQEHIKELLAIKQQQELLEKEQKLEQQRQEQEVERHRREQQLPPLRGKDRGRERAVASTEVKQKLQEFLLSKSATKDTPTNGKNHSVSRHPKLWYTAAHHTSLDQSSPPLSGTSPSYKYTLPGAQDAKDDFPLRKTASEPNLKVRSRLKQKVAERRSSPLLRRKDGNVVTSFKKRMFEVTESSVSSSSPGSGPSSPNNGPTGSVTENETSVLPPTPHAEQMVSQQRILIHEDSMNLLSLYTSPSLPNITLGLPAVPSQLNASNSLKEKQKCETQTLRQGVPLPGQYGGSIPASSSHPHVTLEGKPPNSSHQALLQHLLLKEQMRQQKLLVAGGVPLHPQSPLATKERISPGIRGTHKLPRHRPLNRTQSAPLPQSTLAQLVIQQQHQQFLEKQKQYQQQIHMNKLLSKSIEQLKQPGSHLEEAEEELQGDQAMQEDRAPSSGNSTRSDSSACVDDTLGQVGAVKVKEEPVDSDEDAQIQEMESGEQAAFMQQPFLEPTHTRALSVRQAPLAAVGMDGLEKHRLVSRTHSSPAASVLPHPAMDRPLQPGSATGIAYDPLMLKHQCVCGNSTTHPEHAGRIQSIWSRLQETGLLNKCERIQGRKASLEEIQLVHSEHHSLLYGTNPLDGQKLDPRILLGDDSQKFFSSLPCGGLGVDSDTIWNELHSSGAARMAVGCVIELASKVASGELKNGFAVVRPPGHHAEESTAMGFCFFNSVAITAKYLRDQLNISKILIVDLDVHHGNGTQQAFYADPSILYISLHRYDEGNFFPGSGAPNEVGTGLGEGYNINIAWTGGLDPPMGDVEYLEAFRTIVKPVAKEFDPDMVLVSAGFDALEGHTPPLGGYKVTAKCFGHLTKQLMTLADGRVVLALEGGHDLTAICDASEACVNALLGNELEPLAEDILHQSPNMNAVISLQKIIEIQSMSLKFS
- Measurement description: HDAC9 enzyme inhibitory assay (HDAC-Glo class IIa)
- Type: biochemical
- Run parameters: 1 μM test compound; wells without enzyme = 100% inhibition; read-out: HDAC9 inhibitory rate (%) (1 μM)
Express the result in % but write the number alone.

# count of solved cases: 3
>  <Compound>
CC(C)(c1ccccc1)N1Cc2ncc(-c3noc(C(F)(F)F)n3)cc2C1=O

>  <Units label>
%

>  <Value reported>
89

$$$$
>  <Compound>
C[C@@H](c1ccccc1F)N1Cc2ccc(-c3noc(C(F)(F)F)n3)cc2C1=O

>  <Units label>
%

>  <Value reported>
79

$$$$
>  <Compound>
CC(c1cccnc1)N1Cc2ncc(-c3noc(C(F)(F)F)n3)cc2C1=O (centres unmarked)

>  <Units label>
%

>  <Value reported>
93

$$$$

Request the reported inhibition at 1 µM associated with O=C1c2cc(-c3noc(C(F)(F)F)n3)ccc2CN1Cc1ccccc1
82

Now this one: C[C@@H](c1ccccc1)N1Cc2ccc(-c3noc(C(F)(F)F)n3)cc2C1=O
87

Now this one: Cc1csc(CN2Cc3ccc(-c4noc(C(F)(F)F)n4)cc3C2=O)n1
84

----------
- Target or system: HDAC6 enzyme (Homo sapiens, UniProt Q9UBN7)
- Construct: transducing full length HDAC1 and HDAC6 genes into Sf-9 insect cells; GST; purchased SignalChem; host or cells: Sf-9 insect cells
- Sequence (Q9UBN7 whole entry): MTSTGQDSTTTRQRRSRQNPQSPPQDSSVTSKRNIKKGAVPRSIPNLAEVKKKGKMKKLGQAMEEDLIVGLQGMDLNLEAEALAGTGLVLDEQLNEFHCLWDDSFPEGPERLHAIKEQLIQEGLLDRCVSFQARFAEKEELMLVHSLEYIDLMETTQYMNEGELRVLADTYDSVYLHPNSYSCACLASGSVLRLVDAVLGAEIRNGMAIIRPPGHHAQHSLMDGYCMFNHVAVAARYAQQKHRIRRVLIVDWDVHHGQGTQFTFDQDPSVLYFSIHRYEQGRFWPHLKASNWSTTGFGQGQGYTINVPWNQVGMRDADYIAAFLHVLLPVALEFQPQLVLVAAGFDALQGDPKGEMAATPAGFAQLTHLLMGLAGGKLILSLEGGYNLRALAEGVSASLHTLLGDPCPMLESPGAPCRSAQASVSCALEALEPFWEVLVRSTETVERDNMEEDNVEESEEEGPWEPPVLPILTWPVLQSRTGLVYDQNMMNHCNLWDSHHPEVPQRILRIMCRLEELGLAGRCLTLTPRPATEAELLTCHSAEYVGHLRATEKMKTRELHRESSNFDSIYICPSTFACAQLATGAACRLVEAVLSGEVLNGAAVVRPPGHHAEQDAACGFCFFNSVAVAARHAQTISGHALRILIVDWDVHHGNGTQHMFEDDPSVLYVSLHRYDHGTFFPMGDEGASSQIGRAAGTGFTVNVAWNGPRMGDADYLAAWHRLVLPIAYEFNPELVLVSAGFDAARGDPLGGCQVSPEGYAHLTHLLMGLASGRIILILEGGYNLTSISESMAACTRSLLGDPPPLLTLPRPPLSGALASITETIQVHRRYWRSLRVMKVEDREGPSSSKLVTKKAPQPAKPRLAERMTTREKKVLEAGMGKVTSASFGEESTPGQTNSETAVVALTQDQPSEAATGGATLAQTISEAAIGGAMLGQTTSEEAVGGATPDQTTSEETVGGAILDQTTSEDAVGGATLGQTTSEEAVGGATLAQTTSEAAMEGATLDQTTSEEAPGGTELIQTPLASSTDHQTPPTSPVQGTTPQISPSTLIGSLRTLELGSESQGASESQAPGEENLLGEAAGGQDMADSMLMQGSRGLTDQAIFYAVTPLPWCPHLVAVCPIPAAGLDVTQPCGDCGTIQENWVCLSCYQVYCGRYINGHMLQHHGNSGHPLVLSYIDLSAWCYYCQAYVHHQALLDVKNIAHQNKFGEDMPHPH
- Measurement description: HDAC6 enzyme inhibitory assay (HDAC-Glo I/II Assay kit)
- Type: biochemical
- Run parameters: 1 μM test compound; wells without enzyme = 100% inhibition; read-out: HDAC6 inhibitory rate (%) (1 μM)
Assay endpoint: inhibition at 1 µM (%)
Express the result in % but write the number alone.

Recorded inhibition at 1 µM for O=C1c2cc(-c3noc(C(F)(F)F)n3)ccc2CN1Cc1ccccc1Oc1ccccc1 with HDAC6 enzyme (Homo sapiens, UniProt Q9UBN7), please?
68

Now this one: O=C1c2cc(-c3noc(C(F)(F)F)n3)ccc2CN1Cc1ccccc1
102

Now this one: Cc1csc(CN2Cc3ccc(-c4noc(C(F)(F)F)n4)cc3C2=O)n1
96

Now this one: COc1ncccc1CN1Cc2ccc(-c3noc(C(F)(F)F)n3)cc2C1=O
98

Now this one: C[C@@H](c1ccc(Cl)cc1)N1Cc2ccc(-c3noc(C(F)(F)F)n3)cc2C1=O
88

Now this one: O=C1c2cc(-c3noc(C(F)(F)F)n3)ccc2CN1Cc1c(F)cccc1F
96

Now this one: O=C1c2cc(-c3noc(C(F)(F)F)n3)ccc2CN1Cc1ccccc1OC(F)(F)F
95

Now this one: CN(c1ncccc1CN1Cc2ccc(-c3noc(C(F)(F)F)n3)cc2C1=O)S(C)(=O)=O
97

Now this one: Cc1cc(CN2Cc3ccc(-c4noc(C(F)(F)F)n4)cc3C2=O)nn1C
97

Now this one: C[C@H](c1ccccc1)N1Cc2ccc(-c3noc(C(F)(F)F)n3)cc2C1=O
95

Now this one: CS(=O)(=O)c1ccc(CN2Cc3ccc(-c4noc(C(F)(F)F)n4)cc3C2=O)cc1
94

Now this one: O=C1c2cc(-c3noc(C(F)(F)F)n3)cnc2CN1Cc1cccnc1
93

Now this one: C[C@@H](c1cccc(F)c1)N1Cc2ccc(-c3noc(C(F)(F)F)n3)cc2C1=O
95

Now this one: CC(C)(c1ccccc1)N1Cc2ncc(-c3noc(C(F)(F)F)n3)cc2C1=O
98

Now this one: C[C@@H](c1ccc(F)cc1OC(F)F)N1Cc2ccc(-c3noc(C(F)(F)F)n3)cc2C1=O
96

Now this one: COc1cccc(CN2Cc3ccc(-c4noc(C(F)(F)F)n4)cc3C2=O)c1
98

Now this one: O=C1c2cc(-c3noc(C(F)(F)F)n3)ccc2CN1Cc1ccccn1
99

----------
- Target or system: HDAC1 enzyme (Homo sapiens, UniProt Q13547)
- Construct: transducing full length HDAC1 and HDAC6 genes into Sf-9 insect cells; GST; purchased SignalChem; host or cells: Sf-9 insect cells
- Sequence (Q13547 whole entry): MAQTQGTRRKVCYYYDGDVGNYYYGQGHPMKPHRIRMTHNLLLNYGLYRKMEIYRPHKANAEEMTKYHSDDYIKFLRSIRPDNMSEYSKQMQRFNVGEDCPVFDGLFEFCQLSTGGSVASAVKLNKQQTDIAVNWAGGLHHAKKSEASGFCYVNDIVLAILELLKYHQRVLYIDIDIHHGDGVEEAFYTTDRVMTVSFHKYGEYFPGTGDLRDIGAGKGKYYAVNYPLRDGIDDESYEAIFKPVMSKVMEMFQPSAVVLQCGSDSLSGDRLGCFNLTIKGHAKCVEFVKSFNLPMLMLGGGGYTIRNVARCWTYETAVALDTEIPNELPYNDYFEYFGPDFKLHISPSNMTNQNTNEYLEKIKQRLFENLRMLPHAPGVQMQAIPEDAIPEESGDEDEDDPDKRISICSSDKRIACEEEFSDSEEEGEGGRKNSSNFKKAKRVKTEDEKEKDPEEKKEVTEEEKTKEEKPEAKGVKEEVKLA
- Measurement description: HDAC1 enzyme inhibitory assay (HDAC-Glo I/II Assay kit)
- Type: biochemical
- Run parameters: 1 μM test compound; wells without enzyme = 100% inhibition; read-out: HDAC1 inhibitory rate (%) (1 μM)
Assay endpoint: inhibition at 1 µM (%)
Express the result in % but write the number alone.

# count of solved cases: 5
>  <Compound>
N#Cc1cccc(CN2Cc3ccc(-c4noc(C(F)(F)F)n4)cc3C2=O)c1

>  <Units label>
%

>  <inhibition at 1 µM>
26

$$$$
>  <Compound>
COc1ccccc1CN1Cc2ccc(-c3noc(C(F)(F)F)n3)cc2C1=O

>  <Units label>
%

>  <inhibition at 1 µM>
23

$$$$
>  <Compound>
Cc1csc(CN2Cc3ccc(-c4noc(C(F)(F)F)n4)cc3C2=O)n1

>  <Units label>
%

>  <inhibition at 1 µM>
20

$$$$
>  <Compound>
COc1ccc([C@H](C)N2Cc3ccc(-c4noc(C(F)(F)F)n4)cc3C2=O)cc1

>  <Units label>
%

>  <inhibition at 1 µM>
27

$$$$
>  <Compound>
O=C1c2cc(-c3noc(C(F)(F)F)n3)ccc2CN1Cc1ccccn1

>  <Units label>
%

>  <inhibition at 1 µM>
13

$$$$

Recorded inhibition at 1 µM for C[C@@H](c1ccc(F)cc1OC(F)F)N1Cc2ccc(-c3noc(C(F)(F)F)n3)cc2C1=O with HDAC1 enzyme (Homo sapiens, UniProt Q13547), please?
18

Now this one: C[C@@H](c1ccc(Cl)cc1)N1Cc2ccc(-c3noc(C(F)(F)F)n3)cc2C1=O
9

Now this one: C[C@H](c1ccccc1)N1Cc2ncc(-c3noc(C(F)(F)F)n3)cc2C1=O
55

----------
- Target or system: HDAC6 enzyme (Homo sapiens, UniProt Q9UBN7)
- Construct: transducing full length HDAC1 and HDAC6 genes into Sf-9 insect cells; GST; purchased SignalChem; host or cells: Sf-9 insect cells
- Measurement description: HDAC6 enzyme inhibitory assay (HDAC-Glo I/II Assay kit)
- Type: biochemical
- Run parameters: 1 μM test compound; wells without enzyme = 100% inhibition; read-out: HDAC6 inhibitory rate (%) (1 μM)
inhibition at 1 µM overview
Include the unit right after the number.

>  <Compound>
C[C@@H](c1ccccc1)N1Cc2ccc(-c3noc(C(F)(F)F)n3)cc2C1=O

>  <Target or system>
HDAC6 enzyme (Homo sapiens, UniProt Q9UBN7)

>  <Assay endpoint>
inhibition at 1 µM

>  <Value reported>
99%

$$$$
>  <Compound>
CC(c1ccccn1)N1Cc2ccc(-c3noc(C(F)(F)F)n3)cc2C1=O (centres unmarked)

>  <Target or system>
HDAC6 enzyme (Homo sapiens, UniProt Q9UBN7)

>  <Assay endpoint>
inhibition at 1 µM

>  <Value reported>
97%

$$$$
>  <Compound>
COc1ccccc1CN1Cc2ccc(-c3noc(C(F)(F)F)n3)cc2C1=O

>  <Target or system>
HDAC6 enzyme (Homo sapiens, UniProt Q9UBN7)

>  <Assay endpoint>
inhibition at 1 µM

>  <Value reported>
96%

$$$$
>  <Compound>
C[C@H](c1ccccc1)N1Cc2ncc(-c3noc(C(F)(F)F)n3)cc2C1=O

>  <Target or system>
HDAC6 enzyme (Homo sapiens, UniProt Q9UBN7)

>  <Assay endpoint>
inhibition at 1 µM

>  <Value reported>
99%

$$$$
>  <Compound>
COc1cc(CN2Cc3ccc(-c4noc(C(F)(F)F)n4)cc3C2=O)ccc1OCC1CCCO1 (centres unmarked)

>  <Target or system>
HDAC6 enzyme (Homo sapiens, UniProt Q9UBN7)

>  <Assay endpoint>
inhibition at 1 µM

>  <Value reported>
94%

$$$$
>  <Compound>
O=C1c2cc(-c3noc(C(F)(F)F)n3)ccc2CN1Cc1nccs1

>  <Target or system>
HDAC6 enzyme (Homo sapiens, UniProt Q9UBN7)

>  <Assay endpoint>
inhibition at 1 µM

>  <Value reported>
98%

$$$$
>  <Compound>
N#Cc1ccc(CN2Cc3ccc(-c4noc(C(F)(F)F)n4)cc3C2=O)cc1

>  <Target or system>
HDAC6 enzyme (Homo sapiens, UniProt Q9UBN7)

>  <Assay endpoint>
inhibition at 1 µM

>  <Value reported>
94%

$$$$

Next:
Request the reported inhibition at 1 µM associated with C[C@@H](c1ccccc1)N1Cc2ncc(-c3noc(C(F)(F)F)n3)cc2C1=O
97%

----------
- Target or system: HDAC9 enzyme (Homo sapiens)
- Construct: transducing full length HDAC9 gene into Sf-9 insect cells; made in house; host or cells: Sf-9 insect cells
- Measurement description: HDAC9 enzyme inhibitory assay (HDAC-Glo class IIa)
- Type: biochemical
- Run parameters: 1 μM test compound; wells without enzyme = 100% inhibition; read-out: HDAC9 inhibitory rate (%) (1 μM)
Assay endpoint: inhibition at 1 µM (%)
Express the result in % but write the number alone.

# count of solved cases: 6
>  <Chemical string>
C[C@@H](c1ccc(Cl)cc1)N1Cc2ccc(-c3noc(C(F)(F)F)n3)cc2C1=O

>  <Target or system>
HDAC9 enzyme (Homo sapiens)

>  <Assay endpoint>
inhibition at 1 µM

>  <Value reported>
76

$$$$
>  <Chemical string>
O=C1c2cc(-c3noc(C(F)(F)F)n3)ccc2CN1Cc1ccccc1F

>  <Target or system>
HDAC9 enzyme (Homo sapiens)

>  <Assay endpoint>
inhibition at 1 µM

>  <Value reported>
75

$$$$
>  <Chemical string>
O=C1c2cc(-c3noc(C(F)(F)F)n3)cnc2CN1Cc1cccnc1

>  <Target or system>
HDAC9 enzyme (Homo sapiens)

>  <Assay endpoint>
inhibition at 1 µM

>  <Value reported>
93

$$$$
>  <Chemical string>
COc1cccc(CN2Cc3ccc(-c4noc(C(F)(F)F)n4)cc3C2=O)c1

>  <Target or system>
HDAC9 enzyme (Homo sapiens)

>  <Assay endpoint>
inhibition at 1 µM

>  <Value reported>
81

$$$$
>  <Chemical string>
O=C1c2cc(-c3noc(C(F)(F)F)n3)ccc2CN1Cc1ccccc1Cl

>  <Target or system>
HDAC9 enzyme (Homo sapiens)

>  <Assay endpoint>
inhibition at 1 µM

>  <Value reported>
64

$$$$
>  <Chemical string>
O=C1c2cc(-c3noc(C(F)(F)F)n3)cnc2CN1Cc1ccccc1

>  <Target or system>
HDAC9 enzyme (Homo sapiens)

>  <Assay endpoint>
inhibition at 1 µM

>  <Value reported>
94

$$$$

Next:
Request the reported inhibition at 1 µM associated with C[C@H](c1ccccc1)N1Cc2ncc(-c3noc(C(F)(F)F)n3)cc2C1=O
90
